FYI, the data here is from patent US5756505A.

- System: stress ulcer formation
- measurement_description: WIS: Restraint and Water Immersion Stress-Induced Ulcer Inhibition Test
- Type: in vivo, rat (male Crj:SD or Slc:SD)
- run_conditions: rat, in vivo
value_kind: anti-ulcer effect (in words)

# molecule, anti-ulcer effect (in words)
measured = [
    ("CC(C)Cc1cc(C(=O)N2CCN(CCO)CC2)ccc1OCc1ccc(F)cc1 [Example 9]", "sufficient effects"),
    ("CC(C)Cc1cc(C(=O)N2CCN(CCOC(=O)c3ccc4c(c3)OCO4)CC2)ccc1OCc1ccc(F)cc1 [Example 10]", "sufficient effects"),
    ("CC(C)Cc1cc(C(=O)N2CCN(C(=O)C(C)C)CC2)ccc1OCc1ccc(F)cc1 [Example 6]", "sufficient effects"),
    ("CC(C)Cc1cc(C(=O)N2CCN(CC(C)C)CC2)ccc1OCc1ccc(F)cc1.Cl [Example 22]", "improved"),
]

Please turn your attention to the following entry.
Request: Recorded anti-ulcer effect (in words) of CC(C)Cc1cc(C(=O)N2CCN(CC(C)C)CC2)ccc1OCc1ccc(F)cc1 [Example 21] , please.
Response: improved
